Hey, just so you know, these numbers are from PubChem BioAssay.

Attribute: composite z-score
Experiment Description: small-molecule microarray binders of probe aWnt5a, primary screen, biochemical, biotinylated probe, 635/667 nm fluorescence (AID 1113);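 note: score merges 667 nm fluorescence intensity with signal-to-noise per printed feature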
Assay Setup: higher = more signal
Write the number on its own, no unit after it.

Asked: Look up composite z-score: CCOC(=O)C[C@H]1[C@H](OC(=O)c2cc3ccccc3oc2=O)[C@@H](NC(=O)c2ccccc2)c2cc(OCCCO)ccc2N1C(=O)c1ccc2ccccc2n1
Given back: -0.0758

* * *

Experiment Description: binders of probe aFGF2 on microarray, primary screen, stem cell growth factor project, biochemical, small-molecule microarray, fluorescence 635/667 (AID 1067);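 note: measures binding of biotinylated aFGF2 protein to printed compounds on slides; z-score merges feature fluorescence and signal-to-noise across triplicate slides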
Assay Setup: higher = more signal
Form field: composite z-score (one value per entry).
Please give only the number in your answer, with no unit.

Answered examples (4):
* COCCOC(=O)N1C(=O)[C@@]2(c3cc(C#Cc4ccc(OC)cc4)ccc31)[C@H](c1ccc(O)cc1)N1[C@H](c3ccccc3)[C@H](c3ccccc3)OC(=O)[C@H]1[C@@H]2C(=O)N1CCc2cc(OC)c(OC)cc2C1 | 0.0415
* CCc1cccc(NC(=O)O[C@H]2[C@H](OC(=O)Nc3ccccc3-c3ccccc3)[C@@H](OC(=O)Nc3ccccc3-c3ccccc3)[C@@H](OC)O[C@@H]2CO)c1 | 0.14
* C=CCNC(=O)[C@@H]1[C@H]2C(=O)O[C@H](c3ccccc3)[C@H](c3ccccc3)N2[C@H](c2ccc(OCCO)cc2)[C@@]12C(=O)Nc1ccc(C#CCC(C(=O)OC)C(=O)OC)cc12 | 0.0185
* O=C1c2ccccc2[C@](Cc2ccccc2I)(C(=O)NCCN2CCOCC2)[C@H](c2ccc(CO)cc2)N1C1CCCCC1 | -0.0181

Asked: Consider the compound COc1cc2c(cc1OC)CN(C(=O)[C@H]1[C@@H]3C(=O)O[C@@H](c4ccccc4)[C@@H](c4ccccc4)N3[C@@H](c3ccc(O)cc3)[C@]13C(=O)Nc1ccccc13)CC2 and give its measured composite z-score.
Given back: -0.0282

Asked: Do the same for NC(=O)NCC#Cc1ccc2c(c1)[C@]1(C(=O)N2)[C@H](C(N)=O)[C@H]2C(=O)O[C@H](c3ccccc3)[C@H](c3ccccc3)N2[C@@H]1c1ccc(O)cc1 please
Given back: -0.0413

Asked: And what about the compound [N-]=[N+]=NCc1ccccc1C[C@]1(C(=O)N2CCCCC2)N=C(c2ccc(OCCCO)cc2)O[C@H]1c1ccccc1N=[N+]=[N-] ?
Given back: 0.158

* * *

Test system: Sam68 (KHDRBS1)
Experiment Description: Sam68 small-molecule binders, primary screen, biochemical, small-molecule microarray, 635 nm fluorescence (AID 1125);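 note: score merges 667 nm channel intensity with signal to noise over triplicate slides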
Assay Setup: small-molecule microarray binding, higher = more signal
The threshold is inclusive: composite z-score of exactly 0.4 counts as MET; values below receive NOT MET.

- C=CCNC(=O)[C@H]1[C@@H]2C(=O)O[C@@H](c3ccccc3)[C@@H](c3ccccc3)N2[C@@H](c2ccccc2OCCO)[C@]12C(=O)Nc1ccc(C#CCCO)cc12: NOT MET
- Cc1ccc(S[C@]2(C(=O)NCCCN(C)C)CC(=O)N(Cc3cc(C(F)(F)F)cc(C(F)(F)F)c3)[C@@H]2c2ccc(CO)cc2I)cc1: NOT MET
- O=C(NCCN1CCOCC1)C1N=C(c2ccc(OCCCO)cc2)N(c2ccccc2)O1 (stereo unspecified): MET
- COC(=O)[C@@]1(Cc2ccccc2)N=C(c2ccc(OCCCO)cc2)O[C@H]1c1ccccc1: NOT MET
- CC1CC/C=C\[C@H]2OC34C=CCN(C(C)(C)C)C(=O)[C@H]3N(CCO)C(=O)[C@@H]4C2C(=O)O1 (stereo partly specified): NOT MET

Asked: # check: composite z-score of CN(C)CCCC[C@@H]1NC(=O)[C@H]2C[C@@H](C(=O)NCCCCCCN)[C@@H](c3ccc(O)cc3)N2C1=O is greater than or equal to 0.4
Given back: MET

* * *

// values below are reported z-score
Experiment Description: RPMI8226 myeloma cell viability, profiling panel, resazurin fluorescence, basal, 24 h, PK04 Diversity Set (AID 1180);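 note: RPMI8826 multiple myeloma cell line at 5000 cells per well; test concentration not given here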
Assay Setup: higher = more signal
Returns: the value as a bare number; no unit string appended.

Below are worked cases with known answers.
- O=C(CS)NCCCCCCNC(=O)[C@@H]1C[C@@H]2C(=O)N[C@@H](Cc3ccccc3)C(=O)N2[C@@H]1c1cccc(OCCO)c1: -0.549
- CC(C)N1C(=O)c2ccccc2[C@](C)(C(=O)NCCN2CCOCC2)[C@@H]1c1ccc(CO)cc1: -0.44
- C[N+](C)(C)CCCCCCNC(=O)[C@@H]1C[C@@H]2C(=O)N[C@@H](Cc3ccccc3)C(=O)N2[C@@H]1c1cccc(OCCO)c1: 0.755
- COC(=O)[C@@]1(CCS(=O)(=O)c2ccccc2)N=C(c2ccc(OCCCO)cc2)O[C@H]1c1ccccc1CN=[N+]=[N-]: -2.55

Query compound follows.
Asked: Could you tell me which z-score is on file for CC[C@@H]1C=C(C(=O)O)[C@H](c2ccc(Br)cc2)N1S(=O)(=O)c1ccc(C)cc1 ?
Given back: -1.51

* * *

Experiment Description: E. coli acrAB mutant growth effects, primary screen, E. coli filamentation inducers, strain DRC39, OD650, 24 h (AID 1178);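 note: growth measured as culture turbidity by optical density at 650 nm; test concentration not given here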
Assay Setup: higher = more signal, called active from +8 up or from −8 down
The source made the active and inactive calls.
Measured Quantity: z-score

Reference set, count: 2
• O=C1O[C@H](c2ccccc2)[C@H](c2ccccc2)N2[C@H]1[C@@H](C(=O)N1CCCCCCC1)[C@]1(C(=O)Nc3ccc(C#CCCO)cc31)[C@H]2c1ccccc1OCCO = -0.805 (inactive)
• NC(=O)[C@@H]1[C@H]2C(=O)O[C@H](c3ccccc3)[C@H](c3ccccc3)N2[C@H](c2ccc(O)cc2)[C@@]12C(=O)Nc1ccccc12 = 0.385 (inactive)

Asked: // lookup z-score for CN(C)CCCCCCNC(=O)[C@H]1C[C@H]2C(=O)N3CCC[C@H]3C(=O)N2[C@H]1c1ccc(O)cc1
Given back: 0.113 (inactive)

Asked: Next: COCCOC(=O)N1C(=O)[C@@]2(c3cc(C#CCNC(N)=O)ccc31)[C@H](C(=O)Nc1nc3ccccc3s1)[C@H]1C(=O)O[C@H](c3ccccc3)[C@H](c3ccccc3)N1[C@@H]2c1ccc(OCCO)cc1
Given back: -0.27 (inactive)

Asked: What about C=CCNC(=O)[C@@H]1[C@H]2C(=O)O[C@H](c3ccccc3)[C@H](c3ccccc3)N2[C@H](c2ccc(O)cc2)[C@@]12C(=O)N(C(=O)OCCOC)c1ccc(C#CCNC(N)=O)cc12 ?
Given back: 0.916 (inactive)

Asked: Record: CCCC[C@@H]1C[C@H]1[C@@H](NC(=O)c1cccs1)c1ccc(-c2ccccc2)cc1
Given back: -0.409 (inactive)

Asked: Same question for COCCOC(=O)N1C(=O)[C@@]2(c3ccccc31)[C@H](C(=O)N1CCc3cc(OC)c(OC)cc3C1)[C@H]1C(=O)O[C@H](c3ccccc3)[C@H](c3ccccc3)N1[C@@H]2c1ccc(OCCO)cc1 please.
Given back: -0.259 (inactive)

* * *

Measured Target: Carbonic anhydrase 2 (Homo sapiens) (UniProt P00918)
Experiment Description: CAII small-molecule binders, profiling panel, biochemical, small-molecule microarray, Alexa647-labelled CAII (AID 1122)
Assay Setup: CAII-A647 binding fluorescence, higher = more signal
Answer f if composite z-score is under 0.5, and t if it is 0.5 or more.

Use these answered entries as a reference point.
* O=C1C2C=CC(C(O)c3cc(C(F)(F)F)cc(C(F)(F)F)c3)N(n3cnnc3)C2C(=O)N1Cc1ccccc1 (configuration not stated) | t
* Cc1ccc(N2C(=O)c3ccccc3[C@@H](C(=O)NC3CC3)[C@@H]2c2ccc(CO)cc2)nc1 | t
* C=CCNC(=O)[C@H]1[C@@H]2C(=O)O[C@@H](c3ccccc3)[C@@H](c3ccccc3)N2[C@@H](c2ccccc2OCCO)[C@]12C(=O)Nc1ccc(C#CCCO)cc12 | f

Asked: Can C=C[C@H](CO[Si](CC)(CC)CC)N(Cc1ccc(OC(C)=O)c(OC)c1)S(=O)(=O)c1ccc(Br)cc1 be said to have composite z-score at or above 0.5?
Given back: t

Asked: Now the molecule CC1CC/C=C\[C@H]2OC34C=CCN(C(C)(C)C)C(=O)[C@H]3N(CCO)C(=O)[C@@H]4C2C(=O)O1 (some centres not stated)
Given back: t

Asked: Next molecule up: CC(C)CNC(=O)[C@@]1(Cc2ccccc2I)c2ccccc2C(=O)N(C2CCCCC2)[C@H]1c1ccc(CO)cc1
Given back: t

Asked: // same read-out, input: CCCC[C@@H]1C[C@H]1[C@@H](NC(=O)c1cccs1)c1ccc(-c2ccccc2)cc1
Given back: f

Asked: Same again, this time with CC(C)C[C@@H]1NC(=O)[C@H](C(C)C)NC(=O)[C@@]23C(=O)N[C@@H](Cc4ccccc4)C2[C@H](C)[C@@]2(C)O[C@H]2C3/C=C/CC/C=C/CNC1=O (some centres not stated)
Given back: t

Asked: Same thing, different molecule: C=C(COC)/C(=C/C[C@@H](OC(C)=O)c1ccc(OCCO)cc1)c1cnc2ccccc2c1
Given back: t

Asked: Then COC(=O)C(CC#Cc1ccc2c(c1)[C@]1(C(=O)N2)[C@H](c2ccc(OCCO)cc2)N2[C@H](c3ccccc3)[C@H](c3ccccc3)OC(=O)[C@H]2[C@@H]1C(=O)N1CCc2cc(OC)c(OC)cc2C1)C(=O)OC ?
Given back: t

Asked: Check C=CCN1C(=O)[C@]2(O[C@H](CCn3cc([C@H](O)c4ccccc4)nn3)[C@@H]([Si](C)(C)c3ccc(OC)cc3)[C@@H]2C)c2cc(N3CCC3=O)ccc21 too.
Given back: f

Asked: Now consider COCC(=C=CC[C@@H](O)c1cccc(OCCO)c1)C[C@@H](O)c1ccccn1 and answer again.
Given back: t
